- test_protocol: inhibitors of TNFa-induced NFkB p65 translocation, primary screen, imaging, HUVEC, MLSMR starter and 10KST1 sets (AID 438);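 also: compound added about 3h40 before a 20 min TNFalpha stimulation; signal is the nuclear over cytoplasmic p65 intensity ratio per well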
- study_conditions: HUVEC TNFa-induced p65 nuclear translocation; at 2 µM, hits give high values, 0% TNFa-plus-vehicle, 100% no-TNFa wells
Values of inhibition greater than or equal to -10% map to Satisfied; values below map to Not satisfied.

In [3]: df
Out[3]:
                                   molecule       category
0  COc1ccccc1NC(=O)Cc1noc(CSc2cc(C)c3ccccc3n2)n1  Not satisfied
1       Cc1cc(C)nc(NC(=O)c2cnc3sccn3c2=O)n1  Not satisfied
2  Cc1c(NC(=O)c2ccc(CN3CCc4ccccc4C3)cc2)c(=O)n(-c2ccccc2)n1C      Satisfied
3          Cc1ccc(S(=O)(=O)NCCN2CCOCC2)cc1C  Not satisfied
4                 CCCCP(=O)(CCCC)Cc1ccccc1O      Satisfied
5  O=C(NC(C(=O)c1ccccc1)N1CCOCC1)c1cccs1 (stereo not given)  Not satisfied
6            O=C(O)c1cccn2c(=O)c3ccccc3nc12      Satisfied
7      CCOC(=O)c1nc2sc3c(c2c(=O)[nH]1)CCCC3      Satisfied
8  Cc1ccc(S(=O)(=O)N2C(=O)CCC2C(=O)Nc2ccc3c(c2)OCCO3)cc1 (stereo not given)      Satisfied
9      c1cnc2c(SCc3ccc(-c4nnco4)cc3)cccc2c1      Satisfied
